tested.target: FAD-linked sulfhydryl oxidase ALR (Homo sapiens) (UniProt P55789)
Sequence (P55789 whole entry, looked up): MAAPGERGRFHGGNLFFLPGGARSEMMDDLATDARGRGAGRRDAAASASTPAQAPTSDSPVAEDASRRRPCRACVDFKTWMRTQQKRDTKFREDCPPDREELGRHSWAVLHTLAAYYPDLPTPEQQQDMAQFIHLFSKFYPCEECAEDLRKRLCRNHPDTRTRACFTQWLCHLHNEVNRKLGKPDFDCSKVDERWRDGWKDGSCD
assay.details: inhibitors of human ALR sulfhydryl oxidase, dose response, biochemical, H2O2 detection, luminescence, cherry-pick (AID 493248)
stated.conditions: purified ALR, DTT oxidation, H2O2 HRP-luminol luminescence; at 10 µM (top of the series)
The whole screen tested about 2,300 compounds, of which about 1,400 (61%) were called active. About 7% were inconclusive and are not listed. The set was probably picked from earlier hits. The list is a sample of the results. Measured potencies and affinities stand elsewhere.
Please mark Condition met if the recorded activity change, negative = inhibition is equal to or greater than -50%, and Condition not met if it falls below.

>>> print(df.to_string())
                                    compound                cat
 0  Cc1cc(-c2n[nH]c(=S)n2/N=C/c2cccc([N+](=O)[O-])c2)n[nH]1  Condition not met
 1    CCn1c(=O)c2c3c(sc2n2c(=S)[nH]nc12)CCC3      Condition met
 2                   CCNc1nc(NCC)nc(N(C)N)n1      Condition met
 3            COc1ccc(N2CCN(c3ncccn3)CC2)cc1      Condition met
 4  Cc1ccc(Nc2c(F)c(F)c(F)c(F)c2C(=O)O)c(C)c1  Condition not met
 5   N[C@@H](Cc1ccccc1)c1nnc(SCc2ccccc2Cl)o1      Condition met
 6   COc1cccc(/C=N/NC(=O)CNC(=O)c2cccnc2)c1O      Condition met
 7         Cn1nnnc1SCc1ccc(C(=O)Nc2nccs2)cc1      Condition met
 8        S=c1[nH]nc(C2CCCCC2)n1/N=C/c1cccs1      Condition met
 9               CN(C)/C=N/c1sc2c(c1C#N)CCC2      Condition met
10             Cn1c(CNc2ccc(F)cc2)nc2ccccc21      Condition met
11  CCN(c1ccc(C)c(C)c1)S(=O)(=O)c1ccc2c(c1)CCN2C(=O)CCC(=O)O      Condition met
12  CC1(C)CN(c2ccccc2)N(C(=O)c2ccc(F)cc2)C1=O      Condition met
13  Cc1oc(-c2ccccc2)cc1C(=O)Nc1cccc(C(=O)O)c1      Condition met
14      CCN1CCSc2ccc(C(=O)NCc3cccc(F)c3)cc21      Condition met
15    Cc1ccc(S(=O)(=O)Nc2c(O)ccc3ccccc23)cc1      Condition met
16           S=c1[nH]nc(-c2ccncc2)n1Cc1ccco1      Condition met
17  COc1ccc(NC2CCCN(C(=O)Cn3ccc(C)n3)C2)cc1OC (stereo not given)      Condition met
18  O=C(NCc1ccco1)C1CC(=O)N(c2ccc(O)cc2)C1 (stereo not given)  Condition not met
19  COc1ccccc1C(=O)Nc1nc2nc(-c3ccccc3)cc(=O)n2[nH]1      Condition met
20                 Cc1cccc(N/N=C/c2ccncc2)c1  Condition not met
21    Cc1ccc(S(=O)(=O)NCC(=O)NCC2CCCCC2)cc1C      Condition met
22  CC/C(=N\NC(=O)CCC(=O)NCc1ccccc1)c1ccc(O)cc1  Condition not met
23                   O=C(O)c1ccccc1Nc1ccccc1      Condition met
24             Cn1c(CNc2ccc(O)cc2)nc2ccccc21  Condition not met
25      Cc1c(Cl)c(-c2n[nH]c(=S)n2CC(C)C)nn1C  Condition not met
26  Cc1ccc(NC(=O)C2CCN(S(=O)(=O)c3cccc4cccnc34)CC2)nc1      Condition met
27       Cc1cc(C(=O)Nc2nc3c(C)cccc3s2)c(C)o1      Condition met
